Biological target: T1, CRBN, Q96SW2;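 note: pooled lentiviral library of zinc finger degron-EGFP fusions in mCherry-positive Jurkat cells, FACS-sorted after compound exposure, with degron abundance counted by next-generation sequencing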
T1 chain: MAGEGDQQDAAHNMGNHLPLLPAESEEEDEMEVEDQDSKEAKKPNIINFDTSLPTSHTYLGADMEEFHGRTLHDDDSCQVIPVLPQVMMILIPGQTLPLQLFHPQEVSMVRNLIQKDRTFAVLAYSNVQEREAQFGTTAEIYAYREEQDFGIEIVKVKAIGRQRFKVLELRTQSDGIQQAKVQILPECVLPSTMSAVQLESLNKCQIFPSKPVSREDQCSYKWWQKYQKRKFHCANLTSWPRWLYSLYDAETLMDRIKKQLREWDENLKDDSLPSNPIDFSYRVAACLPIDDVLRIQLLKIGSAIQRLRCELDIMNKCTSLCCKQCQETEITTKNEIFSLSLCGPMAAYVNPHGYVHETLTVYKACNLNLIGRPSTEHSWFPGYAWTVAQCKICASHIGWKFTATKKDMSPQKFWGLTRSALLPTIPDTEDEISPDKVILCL
Test: log2 fold change of degron read counts, EGFP-low vs EGFP+ sorted cells (limma voom), compound-induced degradation; higher = more compound-induced degradation of the degron-EGFP fusion; degrons are variants of IKZF1/3 zinc finger 2; compound dose not given here
Details: Jurkat; 18 h; compound: compound 22 (5-morpholino-thalidomide)
In all, about 8,300 sequences were measured (“log2 fold change of degron read counts, EGFP-low vs EGFP+ sorted cells (limma voom), compound-induced degradation”: median about -1.1, highest 2% from about 3.2 on). The list comes from a sample in which the highest values are over-represented; it also holds close analogues and randomly drawn sequences.

[
  {
    "residue.string": "FMCNICGAPFTQKGNLLRHIKL [46F_47M_49N_50I_52G_53A_54P_55F_67L_, Q9UKT9]",
    "log2 fold change of degron read counts": 3.05
  },
  {
    "residue.string": "FFCNICGAPFTQKGNLLRHIKL [46F_47F_49N_50I_52G_53A_54P_55F_67L_, Q9UKT9]",
    "log2 fold change of degron read counts": 3.29
  },
  {
    "residue.string": "FECPQCGAVFTQKGNLLRHIKL [46F_47E_49P_50Q_52G_53A_54V_55F_67L_, Q9UKT9]",
    "log2 fold change of degron read counts": -2.41
  },
  {
    "residue.string": "FRCPICGHKFTQKGNLLRHIKL [46F_47R_49P_50I_52G_53H_54K_55F_67L_, Q9UKT9]",
    "log2 fold change of degron read counts": -2.78
  },
  {
    "residue.string": "FQCEICGAVFTQKGNLLRHIKL [46F_47Q_49E_50I_52G_53A_54V_55F_67L_, Q9UKT9]",
    "log2 fold change of degron read counts": 2.71
  },
  {
    "residue.string": "FDCPICGHFFTQKGNLLRHIKL [46F_47D_49P_50I_52G_53H_54F_55F_67L_, Q9UKT9]",
    "log2 fold change of degron read counts": -2.22
  },
  {
    "residue.string": "FQCNICGAPFTQKGNLLRHIKL [46F_47Q_49N_50I_52G_53A_54P_55F_67L_, Q9UKT9]",
    "log2 fold change of degron read counts": 3.09
  }
]
